Taken from patent US20160145247A1.

# SUBJECT_OF_TEST: factor D (Homo sapiens)
# Construct: made in house; host or cells: E. coli
# Sequence (P00746 26-253): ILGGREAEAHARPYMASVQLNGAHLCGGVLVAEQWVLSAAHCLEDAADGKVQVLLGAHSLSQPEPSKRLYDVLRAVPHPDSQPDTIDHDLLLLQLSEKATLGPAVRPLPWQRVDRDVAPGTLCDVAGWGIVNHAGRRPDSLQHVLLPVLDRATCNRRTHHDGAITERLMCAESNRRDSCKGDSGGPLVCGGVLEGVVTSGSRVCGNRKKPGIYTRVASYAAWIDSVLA
# EXPERIMENTAL_DETAILS: factor D inhibition assay of Biological Example 2
# Type: biochemical
MEASURED_ENDPOINT: log10(IC50) (log10 of the value in nM)
// stored as log10 of IC50 expressed in nM

O=C(O)Cc1ccccc1OCc1cccc(-c2cccc(-c3ncc[nH]3)c2)c1 = 3.34
CCNc1cc(COc2ccccc2CC(=O)O)cc(-c2cccc([C@H](N)CO)c2)c1 = 0.95
C[C@@H]1CN(Cc2cc(COc3ccccc3CC(=O)O)cc(-c3cccc([C@@H](C)N)c3F)c2)C[C@H](C)O1 = 1.95

Items follow; give log10(IC50) for each.
1. NCc1cc(F)cc(-c2cc(OC[C@@H]3CCCO3)cc(C(=O)Nc3ccccc3CC(=O)O)c2)c1
2. C[C@@H](N)c1cccc(-c2cc(CCC3CCCC3)cc(COc3ccccc3CC(=O)O)c2)c1F
3. CC(Oc1ccccc1CC(=O)O)c1cccc(-c2cccc(CN)c2)c1 (racemic)
4. C[C@@H](N)c1cccc(-c2cc(COc3ccccc3CC(=O)O)c(F)c(NCC3CCCO3)c2)c1F (mixture of isomers)
5. COCCNc1cc(COc2ccccc2CC(=O)O)cc(-c2cccc([C@@H](C)N)c2F)c1
6. C[C@@H](N)c1cccc(-c2cc(CNC3CCOC3)cc(COc3ccccc3CC(=O)O)c2)c1F (some centres unmarked)
7. C[C@@H](N)c1cccc(-c2cc(COc3ccccc3CC(=O)O)cc(N(C)CC(F)F)c2)c1F

0.95
1.04
1.79
0.60
0.95
1.38
1.38

Please supply log10(IC50) for each of the following items, keeping them in order.
1. N[C@H](CO)c1cc(Cl)cc(-c2cccc(COc3ccccc3CC(=O)O)c2)c1
2. C[C@@H](N)c1cccc(-c2cc(COc3ccccc3CC(=O)O)cc(NCC3CCCC3)c2)c1F
3. C[C@@H](N)c1cccc(-c2cc(COc3ccccc3CC(=O)O)cc(OCCN3CCCC3)c2)c1F
4. NCc1cccc(-c2cc(N)c(F)c(COc3ccccc3CC(=O)O)c2)c1

[2.28, 0.30, 1.34, 0.48]

###

# SUBJECT_OF_TEST: factor D (Homo sapiens)
# Construct: made in house; host or cells: E. coli
# EXPERIMENTAL_DETAILS: factor D inhibition assay of Biological Example 2
# Assay type: biochemical
MEASURED_ENDPOINT: pIC50
Give bare numbers, as −log10 of the molar value.

Here are 2 compounds together with their reported answers.
C[C@H](N)c1cccc(-c2cc(COc3ccccc3CC(=O)O)cc(OC[C@H]3CCCO3)c2)c1F = 8.40
Cn1cc(-c2cc(COc3ccccc3CC(=O)O)cc(-c3cccc(CN)c3)c2)cn1 = 8.40

Provide reported pIC50 for each item, in the same order as listed.
1. N[C@H](CO)c1cccc(-c2cccc(COc3c(F)cccc3CC(=O)O)c2)c1
2. C[C@@H](N)c1cccc(-c2cc(COc3ccccc3CC(=O)O)cc(C3CCCCC3)c2)c1F

7.59
7.89

// each compound listed below needs its pIC50
1. CCOC(=O)Cc1ccccc1NC(=O)c1cc(NC(C)=O)cc(-c2cc(F)cc(CN)c2)c1
2. NCc1cccc(-c2cc(NCc3ccccc3)cc(C(=O)Nc3ccccc3CC(=O)O)n2)c1
3. NCc1cccc(-c2cc(COc3ccccc3CC(=O)O)ccc2F)c1F
4. NCc1cc(F)cc(-c2nc(C(=O)Nc3ccccc3CC(=O)O)c(C3CC3)s2)c1
5. C[C@@H](N)c1cccc(-c2cc(COc3ccccc3CC(=O)O)cc(OCCF)c2)c1F

[5.53, 8.52, 7.68, 7.89, 8.10]
